Target or test system: CBM32-5 (Clostridium perfringens, UniProt A0A0H2YU91)
Construct: gene CPF_0859
Condition set: 20 mM Tris-HCl pH 8.0; 20 °C (table; methods say 25 °C)
Answer each item with its documented Ka (M^-1).

Enquiry: Jot down Ka (M^-1) (CBM32-5 (Clostridium perfringens, UniProt A0A0H2YU91)) of CC(=O)N[C@H]1C(O)O[C@H](CO)[C@H](O)[C@@H]1O[C@@H]1O[C@H](CO)[C@H](O)[C@H](O)[C@H]1O (stereo partly drawn) [Gal-β-1,3-GalNAc] .
Return: 3.77 (±0.34)×10^3

Enquiry: Jot down Ka (M^-1) (CBM32-5 (Clostridium perfringens, UniProt A0A0H2YU91)) of OC[C@H]1O[C@@H](O[C@H]2[C@H](O)[C@@H](O)C(O)O[C@@H]2CO)[C@H](O)[C@@H](O)[C@H]1O (stereo partly shown) [Lactose] .
Return: 2.40 (±0.58)×10^3

Enquiry: Jot down Ka (M^-1) (CBM32-5 (Clostridium perfringens, UniProt A0A0H2YU91)) of CC(=O)N[C@H]1C(O)O[C@H](CO)[C@H](O)[C@@H]1O (stereo partly drawn) [D-GalNAc] .
Return: 5.01 (±0.64)×10^3

Enquiry: Jot down Ka (M^-1) (CBM32-5 (Clostridium perfringens, UniProt A0A0H2YU91)) of OC[C@H]1OC(O)[C@H](O)[C@@H](O)[C@H]1O (stereo partly drawn) [D-galactose] .
Return: 1.69 (±0.05)×10^3
